Quick reference for growth inhibition among some compounds
Procedure summary: NCI Yeast Anticancer Drug Screen. Data for the sgs1 mgt1 strain (AID 161);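 further: 0% = growth of cultures given vehicle only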
Condition notes: S. cerevisiae sgs1 mgt1 strain, at 50.0 µM, stronger effect = higher value
Compounds without any hit were thinned out: in the full panel of roughly 79,000, 15% have a hit.
# output: bare number, implied unit %

Some compounds with known growth inhibition results, for comparison:
>  <Compound>
COC(=O)/C=C(C)/C=C/C1OC(C)OCC1O (stereo not drawn)

>  <Unit of measurement>
%

>  <growth inhibition>
-3.65

$$$$
>  <Compound>
O=CNc1cccc2c(=O)[nH][nH]c(=O)c12

>  <Unit of measurement>
%

>  <growth inhibition>
-56.6

$$$$
>  <Compound>
CC(=O)OCCn1cnc2c(NCC=C(C)C)ncnc21

>  <Unit of measurement>
%

>  <growth inhibition>
-40

$$$$
>  <Compound>
C#CC(C)(CC)OC(C)=O (stereo not drawn)

>  <Unit of measurement>
%

>  <growth inhibition>
7.6

$$$$
>  <Compound>
Cc1nc2nc(NCCCN(C)C)nc(NCCCN(C)C)c2nc1C

>  <Unit of measurement>
%

>  <growth inhibition>
22.1

$$$$

Exercise: Tell me measured growth inhibition for "[N-]=[N+]=Nc1ccccc1C(=O)NC(=O)Nc1ccccc1" please.
Key: 5.5

Exercise: Tell me measured growth inhibition for "CCn1c(=O)c2c3cc(OC(C)=O)ccc3oc2c2ccc(OC(C)=O)cc21" please.
Key: -6.8

====

Procedure summary: NCI Yeast Anticancer Drug Screen. Data for the bub3 strain (AID 167)
Condition notes: S. cerevisiae bub3 mutant strain, at 50.0 µM, stronger effect = higher value
The panel holds about 79,000 compounds, 15% with a hit somewhere; the sample as a whole holds those more often.
Quick reference for growth inhibition among some compounds
# output: bare number, implied unit %

Some compounds with known growth inhibition results, for comparison:
>  <Compound>
COc1cccc(CC2C(=O)N=C(NC(C)=O)N2C)c1OC(C)=O (centres undefined)

>  <Observed result>
-5.65

$$$$
>  <Compound>
c1ccc(N2C3Sc4ncccc4C2Sc2ncccc23)cc1

>  <Observed result>
-1.05

$$$$
>  <Compound>
CCCCOCCOC(=O)CCCCCC1C=CCCC1 (centres undefined)

>  <Observed result>
-8.35

$$$$
>  <Compound>
O=C1CCCC1Sc1ccccn1 (centres undefined)

>  <Observed result>
-7.15

$$$$
>  <Compound>
O=C(O)c1ccc(Cl)cc1C(=O)c1ccc(Cl)cc1

>  <Observed result>
-1.7

$$$$

Exercise: Tell me measured growth inhibition for "O=C(OCCNC(=O)N1CCOCC1)OCCNC(=O)N1CCOCC1" please.
Key: -3.2

====

Procedure summary: NCI Yeast Anticancer Drug Screen. Data for the bub3 strain (AID 167)
Condition notes: S. cerevisiae bub3 mutant strain, at 50.0 µM, stronger effect = higher value
This is part of a sample that, as a whole, favours compounds with a hit. Of some 79,000 tested, about 15% had one in any assay.
Quick reference for growth inhibition among some compounds
# output: bare number, implied unit %

Some compounds with known growth inhibition results, for comparison:
>  <Compound>
CC1(C)CCc2c(cc3c(c2O)CCC(C)(C)O3)O1

>  <Measured endpoint>
growth inhibition

>  <Observed result>
9.05

$$$$
>  <Compound>
OC12CCCCCC1(N1CCOCC1)c1ccccc12 (stereo not drawn)

>  <Measured endpoint>
growth inhibition

>  <Observed result>
-37.2

$$$$
>  <Compound>
CCOC(=O)NN(C(=O)OCC)C(C)(C)C(C)=O

>  <Measured endpoint>
growth inhibition

>  <Observed result>
17.8

$$$$

Exercise: Tell me measured growth inhibition for "Cc1ccc(S(=O)(=O)n2oc(N)c(Cc3ccccc3)c2=O)cc1" please.
Key: 19.2

Exercise: Tell me measured growth inhibition for "O=[N+]([O-])c1nccn1CCCl" please.
Key: -9.85

Exercise: Tell me measured growth inhibition for "O=Cc1ccc(-c2ccc(S(=O)(=O)O)cc2)o1" please.
Key: 3.55

Exercise: Tell me measured growth inhibition for CC(=O)OCC1OC(n2cnc([N+](=O)[O-])c2Br)C(OC(C)=O)C1OC(C)=O (stereo not drawn) please.
Key: 6.05

The measurements presented in this section are drawn from PubChem BioAssay (NCI).
